test system: NCI-H23 lung; test: NCI tumour cell line growth inhibition, 48 h
Consider the following compounds and their measured TGI readings.

Worked set:
compound: COc1cc(OCc2nc3ccccc3n3cccc23)cc(OC)c1OC
TGI: > 100 µM

compound: C=C1C(=O)OC2/C=C(\CO)C3OC3C3OC3(C)CC(OC(=O)/C(=C/C)CO)C12 (stereo not given)
TGI: > 100 µM

compound: COc1cc(OC)cc(C2CC(=O)Nc3c2c(C)nn3-c2nc3ccccc3[nH]2)c1 (stereo not given)
TGI: 7.73 µM

compound: CC[C@](O)(CC(=O)O[C@H]1C(=O)O[C@@H]2C[C@H]3C(C)=CC(=O)[C@@H](O)[C@]3(C)[C@H]3[C@@]4(O)OC[C@]32[C@@H]1[C@@H](C)[C@H]4O)C(C)C
TGI: < 0.01 µM

Request: Recorded TGI for O=C1c2ccccc2C(O)(C(=O)O)C1(O)CC=C(Cl)Cl (stereo not given) with NCI-H23 lung, please?
Response: > 125 µM

Request: Recorded TGI for "COC(=O)c1s/c(=N\C(=S)N(C)C)n(-c2ccccc2)c1C(=O)OC" with NCI-H23 lung, please?
Response: > 100 µM

Request: Recorded TGI for CC[C@@H]1OC2(C)CC(S(=O)(=O)c3ccccc3O)CC1O2 (stereo not given in full) with NCI-H23 lung, please?
Response: > 100 µM

Request: Recorded TGI for COc1ccc(/C=C2\CCC(CNc3cc(C)on3)C2=O)cc1 (stereo not given) with NCI-H23 lung, please?
Response: > 100 µM

Request: Recorded TGI for "O=C1c2ccccc2C(=O)N1CCCSc1ccccc1" with NCI-H23 lung, please?
Response: > 100 µM

Request: Recorded TGI for "Cc1cc([C@H](C#N)c2nc3ccccc3[nH]2)nc(Cl)n1" with NCI-H23 lung, please?
Response: > 100 µM
